target: HLA-A11 on COS7/A11 cells expressing the KRAS G12V minigene (23-mer SEQ ID NO: 120) (human, UniProt A*11:01); test: cell-based or functional assay
REPORTED_METRIC: IFN-γ, PBL + Cos7/A11 minigene transfectant (pg/mL)
Give just the numeric value; pg/mL need not be written.

Inquiry: Fill in: IFN-γ, PBL + Cos7/A11 minigene transfectant of TRAV19*01 + TRBV4*01 TCR chain pair (TCR, V domains shown) V domain 1: GQQVKQSSPSLTVQEGGILILNCDYENDMFDYFAWYKKYPDNSPTLLISVRSNVDKREDGRFTVFLNKSGKHFSLHITASQPEDTAVYLCAAGDSGGSNYKLTFGKGTLLTVTP V domain 2: ETAVFQTPNYHVTQVGNEVSFNCKQTLGHDTMYWYKQDSKKLLKIMFSYNNKQLIVNETVPRRFSPQSSDKAHLNLRIKSVEPEDSAVYLCASSRDWGPAEQFFGPGTRLTVLE is ___
Reply text: 30

Inquiry: Same again, this time with TRAV3-3*01 + TRBV13-1*02 TCR chain pair (TCR, V domains shown) V domain 1: GEQVEQRPPHLSVREGDSAVITCTYTDPNSYYFFWYKQEPGASLQLLMKVFSSTEINEGQGFTVLLNKKDKRLSLNLTAAHPGDSAAYFCAVSGGTNSAGNKLTFGIGTRVLVRP V domain 2: EAAVTQSPRNKVTVTGGNVTLSCRQTNSHNYMYWYRQDTGHGLRLIHYSYGAGNLQIGDVPDGYKATRTTQEDFFLLLELASPSQTSLYFCASASWGGYAEQFFGPGTRLTVLE
Reply text: 61

Inquiry: Same again, this time with TRAV3-3*01/TRBV4*01 murine anti-KRAS G12V TCR (SEQ ID NOs: 133 and 134) (TCR, V domains shown) V domain 1: GEQVEQRPPHLSVREGDSAVITCTYTDPNSYYFFWYKQEPGASLQLLMKVFSSTEINEGQGFTVLLNKKDKRLSLNLTAAHPGDSAAYFCAVSGGTNSAGNKLTFGIGTRVLVRP V domain 2: ETAVFQTPNYHVTQVGNEVSFNCKQTLGHDTMYWYKQDSKKLLKIMFSYNNKQLIVNETVPRRFSPQSSDKAHLNLRIKSVEPEDSAVYLCASSRDWGPAEQFFGPGTRLTVLE
Reply text: 11100
